All values here come from the supplement of paper PMC5844555.

Test system: MYCN
Test Method Notes: 3' UTR reporter interaction score (median-centred robust z-score of log2 firefly/Renilla activity); higher = less repression of the 3' UTR reporter
Setup Conditions: HEK293T; 48 h
// 3' UTR reporter interaction score lookup, one value per entry
Please give the numeric answer without any surrounding text.

Illustrative cases are given below, each with its answer.
>>> recorded_number("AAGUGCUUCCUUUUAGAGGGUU")
0.896
>>> recorded_number("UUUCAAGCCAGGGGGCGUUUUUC")
-0.0394
>>> recorded_number("CUUUCAGUCGGAUGUUUGCAGC")
-0.166
>>> recorded_number("GAAAACAGCAAUUACCUUUGCA")
0.734
>>> recorded_number("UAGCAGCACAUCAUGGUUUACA")
0.0626
>>> recorded_number("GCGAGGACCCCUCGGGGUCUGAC")
-0.654
>>> recorded_number("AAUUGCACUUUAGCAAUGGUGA")
0.969
>>> recorded_number("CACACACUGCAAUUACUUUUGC")
0.192

I'm curious: which 3' UTR reporter interaction score was measured for `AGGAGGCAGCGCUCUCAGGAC` tested on MYCN?
0.868

I'm curious: which 3' UTR reporter interaction score was measured for `UUUGGCAAUGGUAGAACUCACA` tested on MYCN?
-0.0764

---

Tested on: BRCA2
Test Method Notes: 3' UTR reporter interaction score (median-centred robust z-score of log2 firefly/Renilla activity); higher = less repression of the 3' UTR reporter
Setup Conditions: HEK293T; 48 h
// 3' UTR reporter interaction score lookup, one value per entry

>>> result("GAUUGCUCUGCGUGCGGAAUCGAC")
0.00588
>>> result("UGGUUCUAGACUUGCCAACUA")
-1.9
>>> result("GGUCCAGAGGGGAGAUAGG")
-0.441

Tell me the measured 3' UTR reporter interaction score of `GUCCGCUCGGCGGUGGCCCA` , please.
-0.044

Tell me the measured 3' UTR reporter interaction score of `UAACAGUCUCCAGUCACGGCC` , please.
-0.504

---

Test system: FBXW7
Test Method Notes: 3' UTR reporter interaction score (median-centred robust z-score of log2 firefly/Renilla activity); higher = less repression of the 3' UTR reporter
Setup Conditions: HEK293T; 48 h
Property: 3' UTR reporter interaction score
Please give the numeric answer without any surrounding text.

>>> recorded_number("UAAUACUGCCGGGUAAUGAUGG")
-0.707
>>> recorded_number("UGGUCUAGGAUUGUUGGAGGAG")
-0.0822
>>> recorded_number("UGAUUGGUACGUCUGUGGGUAGA")
-0.747
>>> recorded_number("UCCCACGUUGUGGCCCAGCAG")
-0.0713
>>> recorded_number("UCAGUCUCAUCUGCAAAGAAG")
0.372

Tell me the measured 3' UTR reporter interaction score of `UUUUUGCGAUGUGUUCCUAAUA` , please.
-2.28

Tell me the measured 3' UTR reporter interaction score of `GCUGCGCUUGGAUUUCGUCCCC` , please.
-0.688

Tell me the measured 3' UTR reporter interaction score of `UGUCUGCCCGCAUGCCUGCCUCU` , please.
0.234

Tell me the measured 3' UTR reporter interaction score of `CUCUAGAGGGAAGCACUUUCUCU` , please.
-2.17

Tell me the measured 3' UTR reporter interaction score of `GUGCAUUGCUGUUGCAUUGCA` , please.
-0.35
